src = ChEMBL document CHEMBL1201862

tested on: MDA-MB-435; assay: NCI tumour cell line growth inhibition, 48 h
Activity calls are given as the source filed them. Rule as the data show it: active = GI50 up to about 1.1 µM and inactive = higher.
attribute_measured: GI50

>>> df
                                    compound  experimental_system           data_value
 0  C=CCN(c1cc(OCc2ccccc2)c2c(c1)c(C)cn2S(=O)(=O)c1ccccc1)S(C)(=O)=O           MDA-MB-435  > 100 µM (inactive)
 1  O=C1NC(=S)NC(=O)C1=Cc1cccc2cc3ccccc3cc12           MDA-MB-435   2.12 µM (inactive)
 2    CC1=Nc2ccccc2/C1=C\c1c(C)[nH]c2ccccc12           MDA-MB-435   6.59 µM (inactive)
 3                           O=c1ssc(Cl)c1Cl           MDA-MB-435   > 10 µM (inactive)
 4  O=c1[nH]nc(Cc2ccc([N+](=O)[O-])cc2)[nH]1           MDA-MB-435  > 100 µM (inactive)
 5  CN(C)CCOc1ccc2[nH]c(C(=O)N3CC(CCl)c4c3cc(NC(=O)OCc3ccc([N+](=O)[O-])cc3)c3ccccc43)cc2c1 (stereo unspecified)           MDA-MB-435    1.6 µM (inactive)
 6           C=CCOc1cc(NC(=S)c2ccoc2C)ccc1OC           MDA-MB-435  > 100 µM (inactive)
 7   CCOC(=O)Nc1cc2ccccc2c(/N=N/c2ccccc2)c1O           MDA-MB-435  > 100 µM (inactive)
 8  COc1cc(/C=C2\C(=O)N(c3cccc(NC(C)=O)c3)C(c3ccccc3)S2(=O)=O)cc(OC)c1OC (stereo unspecified)           MDA-MB-435   47.9 µM (inactive)
 9  O=C(O)CN(CC(=O)O)C(C(=O)O)c1ccccc1 (stereo unspecified)           MDA-MB-435  > 100 µM (inactive)
10               Oc1ccc(Cl)cc1Sc1cc(Cl)ccc1O           MDA-MB-435   10.9 µM (inactive)
11  CC1=C2C(=O)O[C@@H](c3ccoc3)[C@]2(C)CCC1=O           MDA-MB-435  > 100 µM (inactive)
12  COc1ccc2c(c1OC)C(Br)CCC(Br)(Br)C2=O (stereo unspecified)           MDA-MB-435   6.41 µM (inactive)
13            Cc1cc2cc3c(C)cc(=O)oc3c(C)c2o1           MDA-MB-435  > 100 µM (inactive)
14  C=C(C)[C@@H]1CC[C@]2(C)CC[C@]3(C)[C@H](CC[C@@H]4[C@@]5(C)CC[C@H](O)C(C)(C)[C@@H]5CC[C@]43C)[C@@H]12           MDA-MB-435   19.4 µM (inactive)
15           N=c1c2ccccc2nc2oc3ccc(Cl)cc3n12           MDA-MB-435   71.3 µM (inactive)
16  Cc1cccc(NS(=O)(=O)c2ccc3c(c2)OCCOCCOCCOCCO3)c1           MDA-MB-435  > 100 µM (inactive)
17  CCOC(=O)c1c(C)n(-c2ccc(C)cc2)c(=O)c2ccccc2c(=O)c2c(=O)ccc(=O)c1=2           MDA-MB-435   15.3 µM (inactive)
18  COc1ccc(C(=O)/C=C/c2ccc(OCC(=O)N3CCN(c4ccccc4)CC3)cc2)cc1           MDA-MB-435  > 100 µM (inactive)
19  CC1CCc2sc3nc(S)n(C)c(=O)c3c2C1 (stereo unspecified)           MDA-MB-435   50.5 µM (inactive)
20        OCCC/N=C1N=C(Cl)/C(=C\c2ccccc2)N\1           MDA-MB-435  > 100 µM (inactive)
